# Test system: NCI-H226
# Method summary: NCI tumour cell line growth inhibition, 48 h
Active and inactive are the calls of the source. Cut-off read from the data, not from the text of the source: active = GI50 up to about 1.1 µM and inactive = higher.
Hi! Could you answer with just one of these? active, inactive

{"Molecule": "COc1ccc(OC(=O)CC2Cc3cc(OC)c(OC)c(OC)c3-c3ccc(SC)c(=O)cc32)cc1 (stereo unspecified)", "Category label": "active"}

For this molecule, state the assay outcome: CC1=CC(c2ccccc2)OP1(=O)c1ccccc1 (stereo unspecified)
inactive

Then what about the molecule CC(C)(O)c1cc2c(cc1C(C)(C)O)-c1ccccc1-2 ?
inactive

Try this molecule too: CCOC(=O)c1cc2c([N+](=O)[O-])c(N)ccc2s1
inactive

And for C=C1C(=O)OC2CC(C)C(C(CC(C)=O)OC(C)=O)=CCC12 (stereo unspecified) ?
inactive

How about Cc1ccc(/C=C2\Sc3scc(-c4ccccc4)[n+]3C2=O)cc1 ?
inactive
